Origin of measurements: PubChem BioAssay (NCI)

# Test system: HS 578T breast
# Test description: NCI-60 one-dose screen, 48 h
# Condition description: 10 µM
The panel holds about 83,000 compounds, 20% with a hit somewhere; the sample as a whole holds those more often. Calls of active or inactive are those of the source. The calls were made as follows: active = growth percent below 10; inactive = the rest.
Your reply should match one of these outcome classes. 1 = active, -1 = inactive

Please review the entries below; each comes with its answer.
{"Compound": "Nc1ccc(Sc2ccc3c4c2cccc4c(=O)n2c4ccccc4nc32)cc1", "Qualitative label": -1}
{"Compound": "CC(C)c1[nH]nc2c(NCc3ccc(-c4ccccn4)cc3)nc(SCCN)nc12", "Qualitative label": -1}
{"Compound": "COc1ccc2c(=O)cc(C(Cl)(Cl)Cl)oc2c1", "Qualitative label": 1}
{"Compound": "Cc1ccc2c3c(cccc13)-c1ccccc1C2=O", "Qualitative label": -1}
{"Compound": "Cc1nn2c(/C=C3/C(=O)Nc4ccc(Cl)cc43)c(-c3ccccc3)nc2s1", "Qualitative label": 1}

Tell me the assay call for CCOc1cc(Br)c(C(C)NC(=O)c2cccc(OC)c2)cc1OCC (stereo unspecified) please. -1

Tell me the assay call for O=c1[nH]c(=O)n(C2C[C@@H](O)[C@@H](CO)O2)cc1F (stereo partly specified) please. -1

Tell me the assay call for N#CC1C=Cc2c(ccc3ccccc23)N1C(=O)c1ccccc1 (stereo unspecified) please. 1

Tell me the assay call for Cc1cccc2c(Nc3ccc(NS(C)(=O)=O)cc3)c3ccc([N+](=O)[O-])cc3nc12 please. -1

Tell me the assay call for CCCCOCCOCCOCc1cc2c(cc1Br)OCO2 please. -1

Tell me the assay call for CS(=O)(=O)Nc1ccc(OCc2nnc(-c3ccc(Cl)cc3)o2)c(F)c1 please. -1
